# koff annotations
Target: T1, human ROR1-His protein (fused with a His protein tag, Acrobiosystems, RO1-H522y) (human, UniProt Q01973 30-403)
T1 construct: also called recombinant human ROR1-His protein; not shown: His tag
T1 sequence (Q01973 30-403 limits assumed): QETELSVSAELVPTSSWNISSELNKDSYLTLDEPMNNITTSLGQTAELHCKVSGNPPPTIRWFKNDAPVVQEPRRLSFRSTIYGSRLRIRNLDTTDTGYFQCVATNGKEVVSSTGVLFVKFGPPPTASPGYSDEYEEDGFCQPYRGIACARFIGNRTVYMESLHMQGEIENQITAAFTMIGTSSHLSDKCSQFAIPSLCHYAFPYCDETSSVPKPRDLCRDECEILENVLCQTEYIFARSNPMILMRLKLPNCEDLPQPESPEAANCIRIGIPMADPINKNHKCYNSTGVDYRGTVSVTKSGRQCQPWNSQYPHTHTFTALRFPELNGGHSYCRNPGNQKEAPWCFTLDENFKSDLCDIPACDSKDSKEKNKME
Experiment: SPR Biacore T200, method as Example 6 (antibody Fc-captured, antigen as analyte)
Give the value in s⁻¹ but do not write s⁻¹ after it.

As a guide, the following entries are already answered.
Binder	Attribute Measured	Measured Value
single domain antibody AHP15485-VHH4-Variant1 (Fc fusion, Fc format is inferred; not shown: human IgG1 Fc; vector and li) EVQLVESGGGLVQPGGSLRLSCAASGRSFSNFQMGWFRQAPGKEREFVAASGWSGGPTYYWDSVIGRFTISTDNSKNTLYLQMNSLRAEDTAVYYCYEDRVLSGRPVRYWGQGTLVTVSS	koff	0.0153
humanized single domain antibody AHP15485-VHH4 (Fc fusion, Humanized VHH expressed from pcDNA3.4-Fc (Human IgG1); not shown: human IgG1 Fc of the pcDNA3.4-Fc (Human IgG1) expression vector) EVQLVESGGGLVQPGGSLRLSCAASGRSFSNFQMGWFRQAPGKEREFVAASGWSGGPTYYADSVKGRFTISTDNSKNTLYLQMNSLRAEDTAVYYCYEDRVLSGRPVRYWGQGTLVTVSS	koff	0.0547

Could you now look at the following binder, please?
binder single domain antibody AHP15485-VHH4-Variant2 (Fc fusion, Fc format is inferred; not shown: human IgG1 Fc; vector and li) EVQLVESGGGLVQPGGSLRLSCAASGRSFSSFQMGWFRQAPGKEREFVAASGWSGGPTYYWDSVIGRFTISTDNSKNTLYLQMNSLRAEDTAVYYCYEDRVLSGRPVRYWGQGTLVTVSS , koff observed: 0.0018
